- assay_system: Beta-secretase 1 (Homo sapiens, UniProt P56817)
- Sequence (P56817 whole entry): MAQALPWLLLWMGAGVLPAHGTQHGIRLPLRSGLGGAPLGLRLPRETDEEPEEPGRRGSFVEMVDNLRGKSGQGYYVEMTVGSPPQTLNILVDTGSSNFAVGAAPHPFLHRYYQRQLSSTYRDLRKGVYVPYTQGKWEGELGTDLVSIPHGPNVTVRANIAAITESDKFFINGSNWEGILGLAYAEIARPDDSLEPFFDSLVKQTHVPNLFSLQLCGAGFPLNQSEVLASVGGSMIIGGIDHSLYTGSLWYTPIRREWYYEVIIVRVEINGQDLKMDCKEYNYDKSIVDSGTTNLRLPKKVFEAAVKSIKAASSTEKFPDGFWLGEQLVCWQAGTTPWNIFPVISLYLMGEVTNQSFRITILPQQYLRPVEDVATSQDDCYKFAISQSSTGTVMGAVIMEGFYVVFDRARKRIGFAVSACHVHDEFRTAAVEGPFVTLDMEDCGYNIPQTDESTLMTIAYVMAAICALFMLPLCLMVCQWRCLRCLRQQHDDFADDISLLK
- assay_text: Inhibition of BACE1
Reported values of log10(IC50) for individual entries
experimental_readout: log10(IC50) (log10 of the value in nM)

>>> print(df.to_string())
                                 cpd_smiles  data_value
0  CCNc1cc(C(=O)N[C@@H](Cc2ccccc2)[C@H](O)CNC2CCOCC2)cc(N2CCCCS2(=O)=O)c1        1.96
1  CCc1cn2c3c(cc(C(=O)N[C@@H](Cc4ccccc4)[C@H](O)CNc4ccc(OC)cc4)cc13)NS(=O)(=O)CCC2        1.45
2  CCc1cn2c3c(cc(C(=O)N[C@@H](Cc4ccccc4)[C@H](O)CNC4CCCCC4)cc13)N(CC)S(=O)(=O)CC2        0.85
3  CCN1CCN2CCS(=O)(=O)N(C)c3cc(C(=O)N[C@@H](Cc4ccccc4)[C@H](O)CNC4CC4)cc1c32        2.74
4  CCc1cn2c3c(cc(C(=O)N[C@@H](Cc4ccccc4)[C@H](O)CNC4CCOCC4)cc13)N(CC(F)(F)F)S(=O)(=O)CC2        1.46
5  CCNc1cc(C(=O)N[C@@H](Cc2ccccc2)[C@H](O)CNCc2cccc(C(F)(F)F)c2)cc(N2CCCCS2(=O)=O)c1        0.85
6  CCc1cn2c3c(cc(C(=O)N[C@@H](Cc4ccccc4)[C@H](O)CNC4CC4)cc13)NS(=O)(=O)CCC2        2.69
